Examples of compounds with documented melting point follow.

Examples from the recorded data:
compound: Cc1cccc(C(=O)CC(=O)C2CCCC2)c1O
melting point: 74 to 75 °C

compound: COc1cc(C(=O)N(C(C)C)C2CCCCC2)ccc1Cn1c(-c2ccccc2Cl)nc2ncccc21
melting point: 121 to 123 °C

Exercise: Would you kindly share the measured melting point for CCCCOc1ccc2cc(C(C)C(=O)O)ccc2c1 (stereo not given) ?
Solution: 125 to 127 °C

Exercise: # melting point lookup, item `Clc1c(-c2ccccc2)noc1NCC#CI`
Solution: 133 to 135 °C

Exercise: Report melting point for `CCC(=O)Nc1cc(-c2c(-c3cccc(Cl)c3)nc3cccnn23)ccn1` please.
Solution: 192 to 193 °C

Exercise: Given `COC(=O)CCCc1nc(-c2ccc(C)cc2)oc1C(F)(F)F` , state its recorded melting point.
Solution: 44.5 to 45 °C

Exercise: Dear colleague, I am looking for the recorded melting point of the following compound: CCOC(=O)Cc1ccc(NC(=O)C(COc2cccc(Cl)c2)NS(=O)(=O)c2ccc(Cl)cc2)cc1 (racemic)
Solution: 173 to 174 °C

====

readout: melting point

A selection of reference data follows.
molecule: CC1(N)CCN(c2ncc3ncnc(Nc4ccc(F)c(Cl)c4)c3n2)CC1
melting point: 188 to 190 °C

molecule: CC(C)(C)OC(=O)N[C@H](Cc1ccc(Cl)c(Cl)c1)C(=O)N1CCC[C@H]1C(=O)NC1CCc2nc(N)ncc2C1 (stereo partly drawn)
melting point: 114 to 117 °C

molecule: O=C(N[C@@H]1CN[C@H]2CCO[C@H]21)C(F)(F)F (relative stereo)
melting point: 106 to 110 °C

Exercise: Given `O=Cc1ccc2c(c1)ncn2-c1cccc(-c2ccccc2)c1` , state its recorded melting point.
Solution: 170 to 172 °C

Exercise: Entry `CC(C)(C)OC(=O)NOCC(=O)NNC(=O)c1cc(S(=O)(=O)O)cc(OCc2ccccc2)c1OCc1ccccc1` has what melting point?
Solution: 103 to 105 °C

Exercise: Look up melting point for this molecule: `CC(C)=C(C=O)CC(=O)O`
Solution: 102 °C

====

readout: melting point

compound: C(=Cc1cccnc1)c1ccc(C2OCCO2)cc1
melting point: 117 to 119 °C

Exercise: Query: melting point; subject: `O=[N+]([O-])c1ccc(Cc2nnco2)cc1`
Solution: 104 to 105 °C

Exercise: Quick check: melting point of Cc1c(C)c2c(c(C)c1OCc1ccccc1)CC(CCN1C(=O)c3ccccc3C1=O)O2 (stereo unspecified) ?
Solution: 108 to 110 °C

====

readout: melting point

Exercise: I have this molecule here, `CCOC(=O)c1cc2c(C=O)cc3c4ccccc4ccc3c2o1` , and I need its recorded melting point.
Solution: 209 to 212 °C

Exercise: Quick check: melting point of `CCCCCCCCOCCCN=C=O` ?
Solution: 74 to 76 °C

Exercise: // melting point lookup, key: `CCc1c(Cc2c[nH]c3ccccc23)[nH]c(=O)c(CC(C)C)[n+]1[O-]`
Solution: 212 to 214 °C

Exercise: Field request: melting point | item: `CC(C)(C)c1cc(C=C2CC(C)(C)N(C(N)=O)C2=O)cc(C(C)(C)C)c1O`
Solution: 200 to 203 °C

Exercise: Please look up its melting point: `N#Cc1c(N)[nH]c2c1COc1ccccc1-2`
Solution: 216 to 217 °C

Exercise: Item under review: `O=c1oc(-c2ccccc2)cc(O)c1Cc1cccnc1SCc1ccccc1` . Reported melting point?
Solution: 103 to 106 °C

Exercise: What value of melting point has been recorded for this entry: `C#CCOCc1nnc(Nc2ccc3c(c2)ncn3-c2ccccc2)c2ccccc12`
Solution: 89 to 91 °C

Exercise: Returns the measured melting point for the input molecule. Input: `Cc1cccc(C(=O)Cc2ccnc(-c3ccc(OC(F)(F)F)cc3)c2)n1`
Solution: 76 to 78 °C

Exercise: Which melting point value is on record for COc1cc2c(cc1OC)C(=O)C(C(=O)C(F)(F)F)CS2 (stereo unspecified) ?
Solution: 148 to 151 °C

Exercise: Query: melting point; subject: CN(C)C1(c2ccccc2)CCC(c2[nH]c3ccccc3c2Cc2ccccc2)CC1 (stereo unspecified)
Solution: 194 to 199 °C

Exercise: Recorded melting point for `Cc1nc(-c2ccc(Cl)cc2)oc1CO` , please?
Solution: 135 °C

Exercise: Form field: reported melting point of `CCOC(=O)NNc1ccc(-c2ccc(Cl)cc2)nn1`
Solution: 190 to 192 °C

Exercise: Fill blank: measured melting point of the molecule CC1(C)Oc2ccc(C#N)cc2C(NC(=O)Nc2cccc(-c3ncco3)c2)C1O (stereo unspecified) is ____.
Solution: 130 to 135 °C

Exercise: So what's the measured melting point for this one? CC(=O)SCC(C)NS(=O)(=O)c1c(C)cc(C)cc1C (stereo unspecified)
Solution: 123 to 126 °C

Exercise: What value of melting point has been recorded for this entry: `Cc1cc(C)c(N2CCCc3c2nn(C)c3C(=O)O)c(Cl)c1`
Solution: 248 °C

Exercise: I'd like to know its melting point. The molecule in question is `O=[N+]([O-])c1ccc(Cl)c(C=NNc2c(Cl)cc(Cl)cc2Cl)c1`
Solution: 113 to 116 °C

Exercise: Consider the molecule O=C1NC(=O)C(Cc2ccc(S(=O)(=O)CCc3ccccc3)cc2)S1 (stereo unspecified) and give its measured melting point.
Solution: 201 to 203 °C

Exercise: Name the reported melting point value associated with the molecule `CCOC(=O)c1cc(OC)c(OCc2nc(C)c(C)nc2C)c(OC)c1`
Solution: 122 to 123 °C

====

readout: melting point

# annotated cases, reported melting point shown
compound: C1COC(NC(C2CC2)C2CC2)=N1
val: 105 to 106 °C
--
compound: COC(=O)c1cnc(SC)n1C(c1ccccc1)c1ccccc1
val: 118 °C
--
compound: CC(C)(C)OC(=O)NC1CC1F (stereo unspecified)
val: 58 to 60 °C
--
compound: Cc1ccc(C#N)c(Sc2ccc(F)cc2)c1
val: 93 to 96 °C
--
compound: O=C(CCCCC1(C(=O)O)CCCC1)CCCCC1(C(=O)O)CCCC1
val: 99 to 103 °C

Exercise: Give its melting point value. Item: `C[C@H](NC(=O)OC(C)(C)C)C(=O)Oc1c[nH]c2ccccc12`
Solution: 158 °C

====

readout: melting point

Worked examples, 2 compounds total:
compound: COc1ccc(CN2CCc3nc(-c4ccccc4)c4c(c3C2)CO[C@@H](C)C4)cc1
val: 110 °C

compound: Cc1cc(OC(F)(F)C(F)F)ccc1N1C(=O)c2cccc(Cl)c2C1=O
val: 121 to 122 °C

Exercise: Item under review: `Cc1cc(C)n2nc(S(=O)(=O)Nc3c(F)cccc3F)c(Cl)c2n1` . Reported melting point?
Solution: 194 to 196 °C

Exercise: Give its melting point value. Item: `O=C(c1ccc(F)cc1)C1CCN(CCN(C(=O)c2ccc([N+](=O)[O-])cc2)c2cccc(C(F)(F)F)c2)CC1`
Solution: 123 to 137 °C

Exercise: Any idea what its melting point is? The compound is `CCOC(=O)c1c(C(F)(F)F)cc(C(F)(F)F)nc1N`
Solution: 84 to 86 °C

Exercise: Give the measured melting point of `C=CCN(CC=C)c1nc(NC2CC(C)(C)NC(C)(C)C2)nc(NC(C)(C)CC(C)(C)C)n1` .
Solution: 180 °C

Exercise: Value lookup for melting point; key = `O=C(c1cccc(C(F)(F)F)c1F)N1CCN(Cc2cncc(Nc3cc[nH]n3)n2)CC1`
Solution: 160 to 163 °C

Exercise: Given the compound CCC(=O)NCC(CO)c1cccc2ccc(OC)cc12 (stereo not given) , what is its reported melting point?
Solution: 128 to 129 °C

Exercise: Look up melting point: `CNC(=O)c1cccc(C=NNc2ccc(C)cc2)c1O`
Solution: 108 to 125 °C

Exercise: Could you tell me which melting point is on file for `Cc1c(Br)c(Br)c(C)c(Br)c1Br` ?
Solution: 247 to 249 °C

Exercise: Report melting point for `CCc1[nH]n(C2CCCC2)c2nc(-c3cc(C)nc(-n4ccnc4)c3)nc(=O)c1-2` please.
Solution: 277 to 278 °C

Exercise: Look up melting point for this compound: `CC1(C)C(=O)N(c2ccc(C#N)c(C(F)(F)F)c2)C(=O)N1CCCCOCc1ccccc1`
Solution: 75 to 76 °C

====

Below, each entry is listed alongside its reported melting point.

compound: CC(C)(C)c1cc(OCCCCc2nnn[nH]2)cc(C(C)(C)C)c1O
val: 141 to 142 °C
//
compound: O=C(Cl)c1c(Cl)c(Cl)c(C(F)(F)F)c(Cl)c1Cl
val: 72 to 76 °C
//
compound: CCOC(=O)c1ncoc1-c1ccc([N+](=O)[O-])cc1Cl
val: 140 to 141 °C

Consider the additional compound presented here.
Exercise: Recorded melting point for O=C1COC(c2ccccc2)c2ccccc2N1 (stereo unspecified) , please?
Solution: 193 to 195 °C

Just for reference, a melting point compilation (Tetko et al.; mined from patent text by program, amines drawn as free bases though some values may be those of a salt) is where these values come from.
